test system: KM12; experiment: Growth inhibition of human KM12 cells after 48 hrs by sulforhodamine B assay; assay type: functional; details: KM12, 48 h
Form field: LC50 (50% net cell kill) (one value per entry).

Sample answers from the record:
| structure | reported |
| --- | --- |
| COc1ccc(Sc2nc3cc(N)cc(N)c3nc2-c2ccccc2)cc1 | > 100 µM |
| COc1cc(CNc2nc3cc(N)cc(N)c3nc2-c2ccccc2)cc(OC)c1 | > 100 µM |
| COc1ccc(Oc2nc3cc(N)cc(N)c3nc2-c2ccccc2)cc1 | > 100 µM |
| Nc1cc(N)c2nc(-c3ccccc3)c(Sc3ccc(Cl)c(Cl)c3)nc2c1 | > 100 µM |
| Nc1cc(N)c2nc(-c3ccccc3)c(Sc3ccc(F)cc3)nc2c1 | > 100 µM |

Query string: // LC50 (50% net cell kill) lookup, key: `Nc1cc(N)c2nc(-c3ccccc3)c(Oc3ccc(F)cc3)nc2c1`
Result string: > 100 µM

Query string: How about this compound: `Nc1cc(N)c2nc(-c3ccccc3)c(NCc3ccc(F)cc3)nc2c1`
Result string: > 100 µM

Query string: How about this compound: `COc1ccc(CNc2nc3cc(N)cc(N)c3nc2-c2ccccc2)cc1OC`
Result string: 72.4 µM

Query string: How about this compound: `COc1cc(CNc2nc3cc(N)cc(N)c3nc2-c2ccccc2)cc(OC)c1OC`
Result string: > 50.1 µM

Query string: How about this compound: `COc1ccc(CNc2nc3cc(N)cc(N)c3nc2-c2ccccc2)cc1`
Result string: > 100 µM

Query string: How about this compound: `Nc1cc(N)c2nc(-c3ccccc3)c(NCc3ccc(Cl)c(Cl)c3)nc2c1`
Result string: > 100 µM

Query string: How about this compound: `Nc1cc(N)c2nc(-c3ccccc3)c(Oc3ccc(Cl)c(Cl)c3)nc2c1`
Result string: > 100 µM

---

Form field: TGI (one value per entry).
tested on: SN12C; test: Growth inhibition of human SN12C cells after 48 hrs by sulforhodamine B assay; format: functional; settings: read-out: pTGI (converted)
Numeric answer only, unit µM assumed.

| structure | TGI [µM] |
| --- | --- |
| COc1ccc(Sc2nc3cc(N)cc(N)c3nc2-c2ccccc2)cc1 | 24 |
| Nc1cc(N)c2nc(-c3ccccc3)c(Sc3ccc(Cl)c(Cl)c3)nc2c1 | 23.4 |

Query string: // TGI lookup, key: `COc1ccc(CNc2nc3cc(N)cc(N)c3nc2-c2ccccc2)cc1`
Result string: 34.7

---

test system: HT-29; assay: Growth inhibition of human HT-29 cells after 48 hrs by sulforhodamine B assay; assay type: functional; details: HT-29, 48 h
Form field: GI50 (one value per entry).

Sample answers from the record:
| structure | GI50 |
| --- | --- |
| COc1cc(OC)cc(Oc2nc3cc(N)cc(N)c3nc2-c2ccccc2)c1 | 4.37 µM |
| COc1cc(CNc2nc3cc(N)cc(N)c3nc2-c2ccccc2)cc(OC)c1 | 8.13 µM |

Continue with the compound presented below.
Query string: // GI50 lookup, key: `Nc1cc(N)c2nc(-c3ccccc3)c(Oc3ccc(F)cc3)nc2c1`
Result string: 22.9 µM

---

test system: Malme-3M; assay: Growth inhibition of human MALME-3M cells after 48 hrs by sulforhodamine B assay; type: functional
attribute_measured: GI50 (µM)
Numeric answer only, unit µM assumed.

Sample answers from the record:
| structure | GI50, µM |
| --- | --- |
| Nc1cc(N)c2nc(-c3ccccc3)c(NCc3ccc(Cl)c(Cl)c3)nc2c1 | 3.39 |
| COc1ccc(Oc2nc3cc(N)cc(N)c3nc2-c2ccccc2)cc1 | 51.3 |
| Nc1cc(N)c2nc(-c3ccccc3)c(Oc3ccc(Cl)c(Cl)c3)nc2c1 | 15.8 |
| COc1ccc(CNc2nc3cc(N)cc(N)c3nc2-c2ccccc2)cc1 | 10.7 |
| COc1ccc(CNc2nc3cc(N)cc(N)c3nc2-c2ccccc2)cc1OC | 5.62 |
| COc1ccc(Sc2nc3cc(N)cc(N)c3nc2-c2ccccc2)cc1 | 33.1 |
| COc1cc(CNc2nc3cc(N)cc(N)c3nc2-c2ccccc2)cc(OC)c1 | 4.9 |
| Nc1cc(N)c2nc(-c3ccccc3)c(Sc3ccc(Cl)c(Cl)c3)nc2c1 | 19.5 |

Continue with the molecule presented below.
Query string: // GI50 lookup, key: `COc1cc(OC)cc(Oc2nc3cc(N)cc(N)c3nc2-c2ccccc2)c1`
Result string: 0.427

---

Form field: LC50 (one value per entry).
test system: SNB-75; assay: Growth inhibition of human SNB75 cells after 48 hrs by sulforhodamine B assay; assay type: functional; conditions: SNB-75, 48 h

Sample answers from the record:
| structure | tested_target | LC50 |
| --- | --- | --- |
| COc1ccc(CNc2nc3cc(N)cc(N)c3nc2-c2ccccc2)cc1 | SNB-75 | 72.4 µM |
| Nc1cc(N)c2nc(-c3ccccc3)c(Sc3ccc(F)cc3)nc2c1 | SNB-75 | > 100 µM |
| COc1ccc(CNc2nc3cc(N)cc(N)c3nc2-c2ccccc2)cc1OC | SNB-75 | 97.7 µM |
| COc1cc(CNc2nc3cc(N)cc(N)c3nc2-c2ccccc2)cc(OC)c1OC | SNB-75 | > 50.1 µM |
| Nc1cc(N)c2nc(-c3ccccc3)c(Oc3ccc(F)cc3)nc2c1 | SNB-75 | > 100 µM |

Query string: // LC50 lookup, key: `Nc1cc(N)c2nc(-c3ccccc3)c(NCc3ccc(F)cc3)nc2c1`
Result string: > 100 µM

---

test system: TK-10; assay: Growth inhibition of human TK10 cells after 48 hrs by sulforhodamine B assay; type: functional; conditions: TK-10, 48 h, read-out: pLC50 (the source's name) (converted)
attribute_measured: CC50 (µM)
Numeric answer only, unit µM assumed.

Sample answers from the record:
| structure | unit_text | reported |
| --- | --- | --- |
| COc1ccc(CNc2nc3cc(N)cc(N)c3nc2-c2ccccc2)cc1OC | µM | 64.6 |
| COc1ccc(Sc2nc3cc(N)cc(N)c3nc2-c2ccccc2)cc1 | µM | 72.4 |
| Nc1cc(N)c2nc(-c3ccccc3)c(NCc3ccc(Cl)c(Cl)c3)nc2c1 | µM | 72.4 |

Query string: // CC50 lookup, key: `Nc1cc(N)c2nc(-c3ccccc3)c(Sc3ccc(Cl)c(Cl)c3)nc2c1`
Result string: 53.7

Query string: How about this compound: `Nc1cc(N)c2nc(-c3ccccc3)c(Oc3ccc(F)cc3)nc2c1`
Result string: 64.6

Query string: How about this compound: `Nc1cc(N)c2nc(-c3ccccc3)c(NCc3ccc(F)cc3)nc2c1`
Result string: 53.7

---

tested on: HL-60(TB); assay: Growth inhibition of human HL-60(TB) cells after 48 hrs by sulforhodamine B assay; type: functional; conditions: HL-60, 48 h
Kindly apply the following: satisfied if GI50 is less than 5 µM, not satisfied in every other case.

| structure | group_label |
| --- | --- |
| Nc1cc(N)c2nc(-c3ccccc3)c(NCc3ccc(Cl)c(Cl)c3)nc2c1 | satisfied |
| COc1ccc(Sc2nc3cc(N)cc(N)c3nc2-c2ccccc2)cc1 | satisfied |
| Nc1cc(N)c2nc(-c3ccccc3)c(NCc3ccc(F)cc3)nc2c1 | satisfied |

Query string: State whether 5 µM exceeds GI50 recorded for `COc1ccc(CNc2nc3cc(N)cc(N)c3nc2-c2ccccc2)cc1` .
Result string: not satisfied

---

Form field: TGI (one value per entry).
tested on: MCF7; experiment: Growth inhibition of human MCF7 cells after 48 hrs by sulforhodamine B assay; assay type: functional; conditions: MCF7, 48 h, read-out: pTGI (converted)

Sample answers from the record:
| structure | TGI |
| --- | --- |
| COc1ccc(CNc2nc3cc(N)cc(N)c3nc2-c2ccccc2)cc1OC | > 100 µM |
| Nc1cc(N)c2nc(-c3ccccc3)c(Oc3ccc(Cl)c(Cl)c3)nc2c1 | 70.8 µM |
| Nc1cc(N)c2nc(-c3ccccc3)c(Oc3ccc(F)cc3)nc2c1 | > 100 µM |

Query string: // TGI lookup, key: `COc1cc(CNc2nc3cc(N)cc(N)c3nc2-c2ccccc2)cc(OC)c1OC`
Result string: > 50.1 µM

Query string: How about this compound: `COc1cc(OC)cc(Oc2nc3cc(N)cc(N)c3nc2-c2ccccc2)c1`
Result string: 4.57 µM

---

system: Malme-3M; experiment: Growth inhibition of human MALME-3M cells after 48 hrs by sulforhodamine B assay; format: functional; settings: read-out: pTGI (converted)
Kindly apply the following: Criterion met if TGI is less than 20 µM, Criterion not met in every other case.

Some solved entries appear below for comparison.
| structure | group_label |
| --- | --- |
| Nc1cc(N)c2nc(-c3ccccc3)c(NCc3ccc(Cl)c(Cl)c3)nc2c1 | Criterion met |
| Nc1cc(N)c2nc(-c3ccccc3)c(Oc3ccc(Cl)c(Cl)c3)nc2c1 | Criterion not met |
| COc1cc(OC)cc(Oc2nc3cc(N)cc(N)c3nc2-c2ccccc2)c1 | Criterion met |

We now examine a further compound.
Query string: State whether 20 µM exceeds TGI recorded for `COc1cc(CNc2nc3cc(N)cc(N)c3nc2-c2ccccc2)cc(OC)c1` .
Result string: Criterion not met
